Molecular target: UniProtKB P29371
Sequence (P29371 1-465): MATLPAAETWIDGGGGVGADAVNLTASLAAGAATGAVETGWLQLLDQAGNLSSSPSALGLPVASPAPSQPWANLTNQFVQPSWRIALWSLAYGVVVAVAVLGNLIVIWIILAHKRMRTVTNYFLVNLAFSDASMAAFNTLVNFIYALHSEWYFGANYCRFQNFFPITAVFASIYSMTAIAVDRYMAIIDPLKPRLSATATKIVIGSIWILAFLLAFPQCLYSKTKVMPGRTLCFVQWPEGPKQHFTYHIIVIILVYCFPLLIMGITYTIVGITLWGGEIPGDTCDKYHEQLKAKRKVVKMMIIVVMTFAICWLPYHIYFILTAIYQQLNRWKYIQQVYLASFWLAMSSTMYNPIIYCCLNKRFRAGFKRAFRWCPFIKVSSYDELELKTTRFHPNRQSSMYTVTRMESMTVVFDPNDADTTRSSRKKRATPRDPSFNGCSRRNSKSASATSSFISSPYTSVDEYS
Test: Signal transduction (ST), intracellular Ca++ (FLIPR), NK3
Format: cell-based
Details: antagonist, Ca++ transient peak, read-out: pIC50 NK3 (converted)
Assign IC50 to each entry below.
Give bare numbers, in µM.

molecule	measured-target	observation-type	value-reported
O=C1CC2(CCN([C@@H]3CCN(C(=O)c4cc(C(F)(F)F)cc(C(F)(F)F)c4)[C@H](Cc4ccccc4)C3)CC2)CN1Cc1ccccc1Cl [Compound 35]	UniProtKB P29371	IC50	9.55
Cc1ccccc1CN1CC2(CCN([C@@H]3CCN(C(=O)c4cc(C(F)(F)F)cc(C(F)(F)F)c4)[C@H](Cc4ccccc4)C3)CC2)CC1=O [Compound 32]	UniProtKB P29371	IC50	8.32

Consider the record given below.
Result for O=C1CC2(CCN([C@@H]3CCN(C(=O)c4cc(C(F)(F)F)cc(C(F)(F)F)c4)[C@H](Cc4ccccc4)C3)CC2)CN1Cc1ccccc1F [Compound 33] , tested on UniProtKB P29371, IC50: 9.12

Attribution: patent US7612056B2
